Biological target: rat mGlu2 receptor (Rattus norvegicus (Rat))
Assay: mGlu2 in vitro GIRK thallium flux assay
Type: cell-based
Conditions: read-out: mGlu2 EC50 (μM) (60 min); NAM; 60 min compound incubation; EC80 glutamate; HEK-293 GIRK cells
Reported endpoint: EC50

> print(dat)
                                smiles.repr                               test.target  reported.endpoint    value
1  O=C(O)c1ccccc1-c1cccc(-c2nc(-c3ccccc3)n(-c3ccccc3)n2)c1  rat mGlu2 receptor (Rattus norvegicus (Rat))               EC50  > 30 µM
2  Cc1cc2c(cc1C(F)(F)F)NC(=O)CC(c1cccc(Oc3cccc(Br)c3)c1)=N2  rat mGlu2 receptor (Rattus norvegicus (Rat))               EC50  > 10 µM
3  O=C(O)c1cccc(-c2cccc(-c3cn(-c4ccccc4)c(-c4ccccc4)n3)c2)c1  rat mGlu2 receptor (Rattus norvegicus (Rat))               EC50  > 10 µM
4  Nc1cccc(-c2cn(-c3nc(-c4ccc(C(F)(F)F)nc4)cc(C(F)(F)F)n3)cn2)c1  rat mGlu2 receptor (Rattus norvegicus (Rat))               EC50  > 10 µM

---

Biological target: rat mGlu2 receptor (Rattus norvegicus (Rat))
Assay: mGlu2 in vitro GIRK thallium flux assay
Format: cell-based
Conditions: NAM; 2.5 min compound incubation; EC80 glutamate; HEK-293 GIRK cells; read-out: mGlu2 EC50 (μM) (2.5 min)
Reported endpoint: EC50

> print(dat)
                                   compound    value
1  O=C(O)c1cccc(-c2cccc(-c3csc(-c4ccc5ccccc5c4)n3)c2)c1 [Example 32]  > 10 µM
2  ON=Cc1cc(-c2cccc(-c3csc(-c4ccccc4)n3)c2)ccc1F [Example 20]  > 30 µM
3  O=C(O)c1ccc(-c2cccc(-c3nc(-c4ccccc4)n(-c4ccccc4)n3)c2)cc1 [Example 60]  > 10 µM
4  COc1ccc(-c2cc(C(F)(F)F)nc(-c3cccc(-c4ccc(F)c(C(=O)O)c4)c3)n2)cc1OC [Example 99]  > 10 µM

---

Test: Plasma stability in vitro assay
Format: in vitro ADME
Conditions: rat plasma, 100 μM, 37.5° C.
Reported endpoint: Plasma Stability, Percent Remaining @ 1 hour (%)

> print(dat)
                                   compound  value.units  value
1  N#Cc1cc(C2=Nc3ccc(C(F)(F)F)cc3NC(=O)C2)ccn1 [Example 184]            %    100
2  O=C(O)c1cc(-c2cccc(-c3nsc(-c4ccccc4)n3)c2)ccc1F [Example 38]            %     65
3  O=C(O)c1cc(F)cc(-c2cccc(-c3nc(-c4ccco4)cc(C(F)(F)F)n3)c2)c1 [Example 89]            %    100
4  O=C(O)c1cc(F)cc(-c2cccc(-c3nc(-c4ccc(C(F)(F)F)nc4)cc(C(F)(F)F)n3)c2)c1 [Example 76]            %    100
5  O=C1CC(c2cccc(-c3cccnc3)c2)=Nc2ccc(Br)cc2N1 [Example 179]            %    100
6  O=C(O)c1cc(F)cc(-c2cccc(-c3nsc(-c4ccoc4)n3)c2)c1 [Example 43]            %     95

---

Target: rat mGlu3 receptor (Rattus norvegicus (Rat))
Sequence (P31422 23-879): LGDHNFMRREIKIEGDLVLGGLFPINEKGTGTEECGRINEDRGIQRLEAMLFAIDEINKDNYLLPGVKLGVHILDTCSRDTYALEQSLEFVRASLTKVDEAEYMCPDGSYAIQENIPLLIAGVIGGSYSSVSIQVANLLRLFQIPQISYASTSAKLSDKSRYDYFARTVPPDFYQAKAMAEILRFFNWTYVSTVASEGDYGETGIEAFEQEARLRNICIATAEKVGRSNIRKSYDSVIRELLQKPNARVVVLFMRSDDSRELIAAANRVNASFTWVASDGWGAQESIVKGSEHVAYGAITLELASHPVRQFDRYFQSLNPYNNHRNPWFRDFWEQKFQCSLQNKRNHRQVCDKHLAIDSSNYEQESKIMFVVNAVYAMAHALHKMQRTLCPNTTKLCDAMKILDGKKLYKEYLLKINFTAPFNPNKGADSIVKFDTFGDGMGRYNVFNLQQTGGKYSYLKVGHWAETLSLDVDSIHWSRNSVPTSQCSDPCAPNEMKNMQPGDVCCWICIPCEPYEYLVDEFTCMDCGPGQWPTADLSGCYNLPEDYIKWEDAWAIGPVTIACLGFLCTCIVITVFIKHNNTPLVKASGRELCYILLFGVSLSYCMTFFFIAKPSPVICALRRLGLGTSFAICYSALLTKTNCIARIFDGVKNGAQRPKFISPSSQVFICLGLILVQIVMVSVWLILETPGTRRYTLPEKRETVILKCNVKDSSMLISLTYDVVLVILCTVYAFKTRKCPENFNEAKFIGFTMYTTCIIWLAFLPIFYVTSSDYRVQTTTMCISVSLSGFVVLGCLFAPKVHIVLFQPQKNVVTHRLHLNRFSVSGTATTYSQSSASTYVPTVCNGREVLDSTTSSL
Assay: mGlu3 in vitro GIRK thallium flux assay
Assay type: cell-based
Details: NAM; 2.5 min compound incubation; EC80 glutamate; HEK-293 GIRK cells
Reported endpoint: EC50

> print(dat)
                                 smiles.repr    value
 1  NS(=O)(=O)c1cccc(-c2cn(-c3nc(-c4ccc(C(F)(F)F)nc4)cc(C(F)(F)F)n3)cn2)c1  > 30 µM
 2  Nc1cccc(-c2cn(-c3nc(-c4ccc(C(F)(F)F)nc4)cc(C(F)(F)F)n3)cn2)c1  > 30 µM
 3  Cc1cccc(-c2ccc3c(c2)NC(=O)CC(c2ccnc(Cl)c2)=N3)c1  > 10 µM
 4  O=C(O)c1cccc(-c2cccc(-c3cn(-c4ccccc4)c(-c4ccccc4)n3)c2)c1  > 10 µM
 5  Cc1cccc(-c2cc(C(F)(F)F)nc(-c3cccc(-c4ccc(F)c(C(=O)O)c4)c3)n2)c1  3.37 µM
 6  Cc1ccc(-c2cc(C(F)(F)F)nc(-c3cccc(-c4ccc(F)c(C(=O)O)c4)c3)n2)s1  3.14 µM
 7  Cc1cc2c(cc1C(F)(F)F)NC(=O)CC(c1cccc(Sc3ncccn3)c1)=N2  0.81 µM
 8  O=C(O)c1cc(F)cc(-c2cccc(-c3nsc(-c4ccoc4)n3)c2)c1  3.43 µM
 9  O=C(O)c1cc(-c2ccc(-c3csc(-c4ccccc4)n3)cc2)ccc1F  > 30 µM
10  O=C(O)c1cccc(-c2cccc(-c3csc(-c4ccc(Cl)nc4)n3)c2)c1  > 10 µM
11  c1ccc(-c2nc(-c3cccc(-c4cccc(-c5nn[nH]n5)c4)c3)cs2)cc1  > 10 µM
12  N#Cc1cccc(-c2cccc(-c3csc(-c4ccccc4)n3)c2)c1  > 30 µM
13  O=C(O)c1ccc(F)c(-c2cccc(-c3csc(-c4ccccc4)n3)c2)c1  > 30 µM

---

Target: rat mGlu2 receptor (Rattus norvegicus (Rat), UniProt P31421)
Sequence (P31421 19-872): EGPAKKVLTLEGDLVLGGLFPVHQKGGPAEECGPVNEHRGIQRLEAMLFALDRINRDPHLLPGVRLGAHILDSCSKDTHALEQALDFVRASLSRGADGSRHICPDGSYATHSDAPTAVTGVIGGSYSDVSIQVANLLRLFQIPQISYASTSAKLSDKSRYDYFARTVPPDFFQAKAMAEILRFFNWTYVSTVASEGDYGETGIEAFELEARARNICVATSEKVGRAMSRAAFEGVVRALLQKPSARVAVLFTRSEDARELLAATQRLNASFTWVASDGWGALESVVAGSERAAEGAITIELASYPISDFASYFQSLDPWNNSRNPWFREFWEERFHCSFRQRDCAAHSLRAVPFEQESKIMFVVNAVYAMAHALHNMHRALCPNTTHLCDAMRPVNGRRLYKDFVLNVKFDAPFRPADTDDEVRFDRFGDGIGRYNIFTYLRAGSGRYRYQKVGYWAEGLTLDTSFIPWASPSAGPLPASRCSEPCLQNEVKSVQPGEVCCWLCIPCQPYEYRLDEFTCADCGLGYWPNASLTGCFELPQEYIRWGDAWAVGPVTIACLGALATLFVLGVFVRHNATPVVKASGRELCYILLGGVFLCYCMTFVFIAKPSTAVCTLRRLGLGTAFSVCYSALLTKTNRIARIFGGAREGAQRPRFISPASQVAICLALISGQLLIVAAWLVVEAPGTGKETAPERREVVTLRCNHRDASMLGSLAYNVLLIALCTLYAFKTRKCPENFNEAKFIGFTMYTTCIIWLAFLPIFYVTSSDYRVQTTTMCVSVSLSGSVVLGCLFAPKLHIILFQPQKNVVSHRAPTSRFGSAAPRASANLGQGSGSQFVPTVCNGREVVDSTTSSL
Assay: mGlu2 in vitro GIRK thallium flux assay
Type: cell-based
Conditions: read-out: mGlu2 EC50 (μM) (60 min); NAM; 60 min compound incubation; EC80 glutamate; HEK-293 GIRK cells
Items are presented alongside their recorded EC50.
Reported endpoint: EC50

> print(dat)
                                   compound    value
1  O=C(O)c1cc(-c2cccc(Nc3nc(-c4ccco4)cc(C(F)(F)F)n3)c2)ccc1F  > 10 µM
2  Cc1cc2c(cc1C(F)(F)F)NC(=O)CC(c1cccc(Oc3cc(F)cc(F)c3)c1)N2 (single isomer, unassigned) [Example 174B]  > 10 µM
3  O=C(O)c1cc(-c2ccc(-c3csc(-c4ccccc4)n3)cc2)ccc1F  > 30 µM
4  NS(=O)(=O)c1cccc(-c2cn(-c3nc(-c4ccc(C(F)(F)F)nc4)cc(C(F)(F)F)n3)cn2)c1  > 10 µM
5  O=C1CC(c2cccc(Br)c2)=Nc2ccc(NC(=O)OCc3ccccc3)cc2N1  > 10 µM

---

Items are presented alongside their recorded EC50.
Target: rat mGlu2 receptor (Rattus norvegicus (Rat))
Experiment: mGlu2 in vitro GIRK thallium flux assay
Format: cell-based
Settings: NAM; 2.5 min compound incubation; EC80 glutamate; HEK-293 GIRK cells; read-out: mGlu2 EC50 (μM) (2.5 min)
Reported endpoint: EC50

> print(dat)
                                smiles.repr    value
1  O=C(O)c1ccccc1-c1cccc(-c2nc(-c3ccccc3)n(-c3ccccc3)n2)c1  > 30 µM
2  O=C(O)c1cccc(-c2cccc(-c3coc(-c4ccccc4)c3)c2)c1  > 10 µM
3  O=C(O)c1cccc(-c2cccc(-c3nc(-c4ccccc4)n(-c4cccc5ccccc45)n3)c2)c1  > 10 µM

---

Target: rat mGlu2 receptor (Rattus norvegicus (Rat), UniProt P31421)
Assay: mGlu2 in vitro GIRK thallium flux assay
Type: cell-based
Details: read-out: mGlu2 EC50 (μM) (60 min); NAM; 60 min compound incubation; EC80 glutamate; HEK-293 GIRK cells
Items are presented alongside their recorded log10 EC50.
Reported endpoint: log10 EC50 (log10 of the value in µM)

> print(dat)
                                   compound                               test.target  value
1     N#Cc1cc(C2=Nc3ccc(Br)cc3NC(=O)C2)ccn1  rat mGlu2 receptor (Rattus norvegicus (Rat), UniProt P31421)  -1.40
2  Cc1cc2c(cc1C(F)(F)F)NC(=O)CC(c1cccc(S(=O)(=O)c3ncccn3)c1)=N2  rat mGlu2 receptor (Rattus norvegicus (Rat), UniProt P31421)  -1.22
3  O=C(O)c1cc(-c2cccc(-c3nc(-c4cc(C(F)(F)F)cc(C(F)(F)F)c4)cc(C(F)(F)F)n3)c2)ccc1F  rat mGlu2 receptor (Rattus norvegicus (Rat), UniProt P31421)   0.50
4  O=C(O)c1cc(-c2cccc(-c3nc(-c4ccc[nH]4)cc(C(F)(F)F)n3)c2)ccc1F  rat mGlu2 receptor (Rattus norvegicus (Rat), UniProt P31421)   0.15
5  O=C(O)c1cc(-c2cccc(-c3nc(-c4cccs4)cc(C(F)(F)F)n3)c2)ccc1F [Example 87A]  rat mGlu2 receptor (Rattus norvegicus (Rat), UniProt P31421)  -0.62
6  Cc1cc(Cl)ccc1-c1ccc2c(c1)NC(=O)CC(c1ccnc(Cl)c1)=N2  rat mGlu2 receptor (Rattus norvegicus (Rat), UniProt P31421)  -0.22
7  O=C(O)c1cc(-c2cccc(-c3nccc(-c4ccoc4)n3)c2)ccc1F  rat mGlu2 receptor (Rattus norvegicus (Rat), UniProt P31421)   0.00
8  O=C(O)c1cc(F)cc(-c2cccc(-c3nc(-c4ccoc4)cc(C(F)(F)F)n3)c2)c1  rat mGlu2 receptor (Rattus norvegicus (Rat), UniProt P31421)  -0.64
